# testedSystem: T1, Cynomolgus monkey CDCP1 (Macaca fascicularis, UniProt A0A2K5VLA8);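 further: antibody captured for 120 s on the sensor, followed by 300 s association with CDCP1 and a 300–600 s dissociation phase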
# T1 construct: recombinant ectodomain from CHO cells; construct not given; also called cyCDCP1; BBP468
# assayRemarks: Octet BLI, Ab on Protein A sensor, recombinant CDCP1 analyte
reportedProperty: Kd (nM)
Could you give me the number in nM? Just the number is fine.

# example entries with known answers
{"columns": ["binder", "reportedProperty", "readoutNumber"],
 "data": [
  ["10E2 (antibody, V domains shown, also called human antibody 10E2) VH: QVQLVESGGGVVQPGRSLRLSCAASGFTFSSYGMHWVRQAPGKGLEWVAVVWYDGTIKYYADSVKGRFTISRDNPKNTLYLQMNSLRAEDTAVYYCASQYSSGWHTDFFDVWGQGTMVTVSS VL: DIQMTQSPSTLSASVGDRVTITCRASQSISTWLAWYQQKPGKAPKFLIYKASSLESGVPSRFSGSGSGTEFTLTISSLQPDDFATYYCQQYSGYSLTFGGGTKVEIK", "Kd", 1],
  ["38E11 (antibody, human IgG1, V domains shown, also called human antibody 38E11) VH: EVQLLESGGGLVQPGGSLRLSCAASGFTFSNYAMNWVRQAPGKGLEWVSAISGGGGSTYYADSVKGRFTISRDNSKNTLYLQMNSLRAEDTAVYYCAKESITMVRGVMDYYGMDVWGQGTTVTVSS VL: DIQLTQSPSFLSASVGDRVTITCRASQGISSYLAWYQQKPGKAPKLLIYAASTLQGGVPSRFSGSGSGTEFTLTISSLQPEDFATYYCQHLNRFPRTFGQGTKVEIK", "Kd", 4]
]}

Consider the record given below.
Query: Form field: reported Kd of 27H10 (antibody, human IgG1, V domains shown, also called human antibody 27H10) VH: QVQLVQSGAEVKKPGSSVKVSCKASGGTFSSYAMSWVRQAPGQGLEWMGGIIPILGTTNYAQKFQGRVTITADKSTSTAYMELSSLRSEDTAVYYCAREGLYAFDIWGQGTMVTVSS VL: DIQMTQSPSSLSASVGDRVTITCRASQSISSYLNWYQQKPGKAPKFLIYVASSLQSGVPSRFSGRGSGTDFTLTISSLQPEDFATYYCQQSYSTPWTFGQGTKVEIK
Result: 45
